Target: Streptavidin (Streptomyces avidinii) (UniProt P22629)
Sequence (P22629 whole entry, looked up): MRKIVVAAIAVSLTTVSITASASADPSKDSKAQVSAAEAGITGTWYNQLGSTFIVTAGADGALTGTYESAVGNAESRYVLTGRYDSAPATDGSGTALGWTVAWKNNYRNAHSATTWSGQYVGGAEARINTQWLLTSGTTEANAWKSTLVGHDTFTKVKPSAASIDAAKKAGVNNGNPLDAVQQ
Assay: streptavidin binders on small-molecule microarray, primary screen, artefact control for SMM compound annotation, biophysical, 635/667 nm fluorescence (AID 1147);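 also: signal reflects streptavidin binding to arrayed compounds as a control protein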
Details: streptavidin binding, higher = more signal
In this section we review reported composite z-score values for a set of compounds.
readout_kind: composite z-score

[[record]]
compound = "CCOC(=O)NN=C1C[C@@H](O)[C@@H](O)[C@@H]2[C@@H]3C(=O)N(C(C)(C)C)C(=O)[C@@H]3CC[C@@H]12"
value_observed = -0.784

[[record]]
compound = "CC(C)C[C@@H]1NC(=O)[C@H]2C[C@@H](C(=O)O)[C@@H](c3ccc(O)cc3)N2C1=O"
value_observed = 0.0925

[[record]]
compound = "CN(C)CCCNC(=O)[C@@H]1c2ccccc2C(=O)N(Cc2cc(F)cc(C(F)(F)F)c2)[C@H]1c1ccc(CO)cc1"
value_observed = -0.621

[[record]]
compound = "CCCNC(=O)[C@@H]1c2ccccc2C(=O)N(c2ccc(C)cn2)[C@H]1c1ccc(CO)cc1"
value_observed = -0.372

[[record]]
compound = "COCCOC(=O)N1C(=O)[C@@]2(c3cc(C#Cc4ccc(OC)cc4)ccc31)[C@H](c1ccc(O)cc1)N1[C@H](c3ccccc3)[C@H](c3ccccc3)OC(=O)[C@H]1[C@@H]2C(N)=O"
value_observed = 0.417

[[record]]
compound = "CC1(C)OCC(C(O)C2=CCCCC2=O)CO1 (stereo not given)"
value_observed = 0.412

[[record]]
compound = "C#C[C@@H](CC)O[Si](C#Cc1ccc(Oc2ccccc2)cc1)(C(C)C)C(C)C"
value_observed = -0.149

[[record]]
compound = "CC(CCN1CCCCc2nc(C)c(C)cc21)=NOC(C)CN1CCCCc2nc(C)c(C)cc21 (stereo not given)"
value_observed = 1.1

[[record]]
compound = "CO[C@@H]1COC(=O)CC=C[C@@H](C)[C@@H]2C=C[C@@H](O)[C@@H](COC(=O)CC=C[C@H]1C)O2"
value_observed = -0.0469

[[record]]
compound = "CCOC(=O)[C@H](CC(C)C)NC(=O)CCC1CC(OC(=O)NCc2cccc3ccccc23)CC2(CCCC(COC(=O)NCCN3CCOCC3)O2)O1 (stereo not given in full)"
value_observed = 0.308

[[record]]
compound = "CCOC(=O)NN=C1C[C@@H](O)[C@@H](O)[C@@H]2[C@@H]3C(=O)N(C4CCCCC4)C(=O)[C@@H]3CC[C@H]12"
value_observed = -0.0615

[[record]]
compound = "CC(C)NC(=O)[C@@]1(C)c2ccccc2C(=O)N(Cc2cc(F)cc(C(F)(F)F)c2)[C@H]1c1ccc(CO)cc1"
value_observed = 0.0926

[[record]]
compound = "O=C(NN=C1C[C@@H](O)[C@@H](O)[C@@H]2[C@@H]3C(=O)N(c4cccc(Oc5ccccc5)c4)C(=O)[C@@H]3CC[C@H]12)OCc1ccccc1"
value_observed = 1.68

[[record]]
compound = "CC[C@@H](c1ccccc1)n1c(=O)n2n(c1=O)[C@H]1[C@H](O)[C@@H]3O[C@@H]3C(=NOCC(C)C)[C@H]1CC2"
value_observed = -0.36

[[record]]
compound = "C[C@@H](c1ccccc1)N1C(=O)[C@H]2[C@H]3[C@H](O)C=CC(=O)[C@@H]3CC[C@H]2C1=O"
value_observed = 0.831


----------
Experiment: small-molecule binders of probe aLefty1, primary screen, biochemical, small-molecule microarray, 635/667 nm fluorescence (AID 1153);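 also: score merges spot fluorescence with signal-to-noise ratio from the scanned slide images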
Conditions: higher = more signal
In this section we review reported composite z-score values for a set of molecules.
readout_kind: composite z-score

[[record]]
molecule = "CC(=O)C[C@H](O)[C@@H](NC(=O)OC(C)(C)C)C(C)C"
readout_kind = "composite z-score"
value_observed = -0.196

[[record]]
molecule = "CCCCCN1CC=CC23O[C@@H]4C=CCOC(=O)[C@@H]4[C@H]2C(=O)N(CCCCCCO)[C@@H]3C1=O (stereo partly specified)"
readout_kind = "composite z-score"
value_observed = -0.103

[[record]]
molecule = "CO[C@@H]1COC(=O)CCC[C@@H](C)[C@H](OC)COC(=O)CCC[C@H]1C"
readout_kind = "composite z-score"
value_observed = -0.0933

[[record]]
molecule = "CO[C@H]1COC(=O)CC=C[C@H](C)[C@@H](NS(=O)(=O)c2ccc(C)cc2)COC(=O)CC=C[C@@H]1C"
readout_kind = "composite z-score"
value_observed = -0.194

[[record]]
molecule = "CCN(CC)c1ccc(N2CC=CC34O[C@@H]5/C=C\\CCC(C)OC(=O)C5[C@H]3C(=O)N(CCCO)[C@@H]4C2=O)cc1 (stereo partly specified)"
readout_kind = "composite z-score"
value_observed = -0.191

[[record]]
molecule = "O=C1NC(=O)C2C1C=CC(C(O)Cc1ccccc1)N2Nc1ccccn1 (stereo unspecified)"
readout_kind = "composite z-score"
value_observed = 0.165

[[record]]
molecule = "CC1CC/C=C\\[C@H]2OC34C=CCN(C(C)C)C(=O)[C@H]3N(CCCO)C(=O)[C@@H]4C2C(=O)O1 (stereo partly specified)"
readout_kind = "composite z-score"
value_observed = -0.0536

[[record]]
molecule = "CCc1cc2c(nc1CC)CCN(CCC(C)=NOC[C@@H](O)[C@H]1O[C@@H]3OC(C)(C)O[C@@H]3[C@H]1O)C2"
readout_kind = "composite z-score"
value_observed = -0.179

[[record]]
molecule = "NC(=O)NCC#Cc1ccc2c(c1)[C@]1(C(=O)N2)[C@H](c2ccc(O)cc2)N2[C@H](c3ccccc3)[C@H](c3ccccc3)OC(=O)[C@H]2[C@@H]1C(=O)N1CCCCCCC1"
readout_kind = "composite z-score"
value_observed = 2.04

[[record]]
molecule = "C#CCCCON=C1C[C@@H](O)[C@@H](O)[C@@H]2[C@@H]3C(=O)N(Cc4ccccc4)C(=O)[C@@H]3CC[C@H]12"
readout_kind = "composite z-score"
value_observed = -0.111

[[record]]
molecule = "CC(C)CON=C1C[C@@H](O)[C@@H](O)[C@@H]2[C@@H]3C(=O)N([C@@H](C)c4ccccc4)C(=O)[C@@H]3CC[C@H]12"
readout_kind = "composite z-score"
value_observed = -0.192

[[record]]
molecule = "COC(=O)[C@H](C)NC(=O)CCC1CC(OC(=O)NCc2ccc3c(c2)OCO3)CC2(CCCC(COC(=O)NCCOc3ccccc3)O2)O1 (stereo partly specified)"
readout_kind = "composite z-score"
value_observed = -0.414

[[record]]
molecule = "CO[C@H]([C@@H](C)[C@H](OC)c1ccccc1)[C@H](C)[C@@H](OC)[C@H](C)C(C)=O"
readout_kind = "composite z-score"
value_observed = -0.288

[[record]]
molecule = "CO[C@@H]1COC(=O)CC=C[C@@H](C)[C@@H]2C=C[C@@H](O)[C@@H](COC(=O)CC=C[C@H]1C)O2"
readout_kind = "composite z-score"
value_observed = -0.012

[[record]]
molecule = "c1ccc(C2NCCc3c2[nH]c2ccccc32)cc1 (stereo unspecified)"
readout_kind = "composite z-score"
value_observed = 0.155

[[record]]
molecule = "C=CC[C@@H]1C=C[C@H](ON=C[C@@H](OC)[C@H](C)C=CCC(=O)OC)[C@@H](CO)O1"
readout_kind = "composite z-score"
value_observed = 0.0533


----------
Molecular target: Focal adhesion kinase 1 (Homo sapiens) (UniProt Q05397)
Sequence (Q05397 whole entry, looked up): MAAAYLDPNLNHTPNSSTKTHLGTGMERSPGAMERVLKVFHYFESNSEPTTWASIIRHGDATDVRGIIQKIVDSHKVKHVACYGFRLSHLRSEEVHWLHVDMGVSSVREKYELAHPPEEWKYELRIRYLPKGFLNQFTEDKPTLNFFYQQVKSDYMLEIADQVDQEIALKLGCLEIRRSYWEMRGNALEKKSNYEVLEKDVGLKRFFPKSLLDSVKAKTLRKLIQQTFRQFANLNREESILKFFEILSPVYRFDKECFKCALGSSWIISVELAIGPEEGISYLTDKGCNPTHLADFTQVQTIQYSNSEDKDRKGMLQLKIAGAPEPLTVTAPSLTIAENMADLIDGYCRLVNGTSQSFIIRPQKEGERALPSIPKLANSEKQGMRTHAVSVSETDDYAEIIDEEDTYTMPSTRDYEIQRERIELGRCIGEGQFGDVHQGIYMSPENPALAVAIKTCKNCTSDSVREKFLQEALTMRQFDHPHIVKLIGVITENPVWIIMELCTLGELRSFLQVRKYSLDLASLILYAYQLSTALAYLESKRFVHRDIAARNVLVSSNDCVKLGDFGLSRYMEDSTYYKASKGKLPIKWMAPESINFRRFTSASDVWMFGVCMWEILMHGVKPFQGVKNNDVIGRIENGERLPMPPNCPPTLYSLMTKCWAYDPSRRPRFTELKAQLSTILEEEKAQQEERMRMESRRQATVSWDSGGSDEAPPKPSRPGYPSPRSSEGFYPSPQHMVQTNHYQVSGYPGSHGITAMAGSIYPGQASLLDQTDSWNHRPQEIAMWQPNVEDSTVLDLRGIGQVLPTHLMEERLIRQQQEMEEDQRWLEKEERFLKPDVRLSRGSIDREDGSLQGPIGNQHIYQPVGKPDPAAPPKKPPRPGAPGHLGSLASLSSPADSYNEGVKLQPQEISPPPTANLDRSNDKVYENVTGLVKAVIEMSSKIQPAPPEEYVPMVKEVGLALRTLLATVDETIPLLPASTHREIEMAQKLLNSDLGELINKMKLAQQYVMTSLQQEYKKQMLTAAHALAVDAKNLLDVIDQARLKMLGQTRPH
Experiment: small-molecule microarray binders of FAK, primary screen, biochemical, 635/667 nm fluorescence, BSA, DTT (AID 1130);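 also: composite of spot emission at 667 nm and signal to noise over triplicate slides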
Conditions: PTK2 binding, 635 nm fluorescence, higher = more signal
readout_kind: composite z-score

[[record]]
compound = "CCOC(=O)CCN1C(=O)[C@H]2[C@H]3[C@H](O)[C@H](O)CC(=NNC(=O)OCc4ccc(OC)cc4)[C@@H]3CC[C@H]2C1=O"
readout_kind = "composite z-score"
value_observed = 0.215

[[record]]
compound = "O=C1C2C=CC(C(O)c3ccc([N+](=O)[O-])cc3)N(Nc3ccc([N+](=O)[O-])cc3)C2C(=O)N1c1ccccc1 (stereo not drawn)"
readout_kind = "composite z-score"
value_observed = 0.719

[[record]]
compound = "CCN1C(=O)[C@H]2[C@H]3[C@H](O)[C@H](O)CC(=NOC(C)CN4CCCCc5nc(C)c(C)cc54)[C@@H]3CC[C@H]2C1=O (stereo partly drawn)"
readout_kind = "composite z-score"
value_observed = 0.167

[[record]]
compound = "CO[C@@H]1COC(=O)[C@@H]2CCCN2C(=O)[C@@H](C)COC(=O)[C@H](COCc2ccccc2)NC(=O)CC=C[C@H]1C"
readout_kind = "composite z-score"
value_observed = 0.0252

[[record]]
compound = "Cc1cc2c(nc1C)CCCN2CC(O)CN1CCN(C)CC1 (stereo not drawn)"
readout_kind = "composite z-score"
value_observed = 0.648

[[record]]
compound = "COCCCNC(=O)[C@]1(Cc2ccccc2)N=C(c2ccc(OCCCO)cc2)O[C@@H]1c1ccccc1"
readout_kind = "composite z-score"
value_observed = 1.03

[[record]]
compound = "COCCOC(=O)N1C(=O)[C@@]2(c3cc(C#CCNC(N)=O)ccc31)[C@H](c1ccccc1OCCO)N1[C@H](c3ccccc3)[C@H](c3ccccc3)OC(=O)[C@H]1[C@@H]2C(=O)N1CCN(c2ncccn2)CC1"
readout_kind = "composite z-score"
value_observed = 0.491

[[record]]
compound = "COCCOC(=O)N1C(=O)[C@@]2(c3cc(C#CCNC(N)=O)ccc31)[C@H](c1ccc(O)cc1)N1[C@H](c3ccccc3)[C@H](c3ccccc3)OC(=O)[C@H]1[C@@H]2C(=O)N1CCCCCCC1"
readout_kind = "composite z-score"
value_observed = 0.14

[[record]]
compound = "C=C(CCCC)C(=O)CC[C@@H](OC(C)=O)c1cccc(OCCO)c1"
readout_kind = "composite z-score"
value_observed = -0.0296

[[record]]
compound = "CCOC(=O)C1=CC[C@H]2C(=O)N(CC)C(=O)[C@@H]12"
readout_kind = "composite z-score"
value_observed = -0.0436

[[record]]
compound = "C[C@@H](c1ccccc1)N1C(=O)[C@H]2[C@H]3[C@H](O)[C@H](O)CC(=NNC(=O)OCc4ccccc4)[C@H]3CC[C@H]2C1=O"
readout_kind = "composite z-score"
value_observed = -0.048

[[record]]
compound = "O=C1[C@H]2[C@H]3[C@H](O)[C@H](O)CC(=NO[C@@H]4O[C@H](CO)[C@@H](O)[C@H](O)[C@H]4O)[C@H]3CC[C@H]2C(=O)N1C1CCCCC1"
readout_kind = "composite z-score"
value_observed = 0.84

[[record]]
compound = "CCN1C(=O)[C@H]2[C@H]3[C@H](O)C=CC(=O)[C@@H]3CC[C@H]2C1=O"
readout_kind = "composite z-score"
value_observed = 0.0565

[[record]]
compound = "COc1cccc([C@H]2Oc3ccc(OC)cc3C(=NO[C@H](C)c3cn([C@@H]4COC[C@H]4O)nn3)[C@@H]2O)c1"
readout_kind = "composite z-score"
value_observed = -0.624

[[record]]
compound = "O=C(NN=C1C[C@@H](O)[C@@H](O)[C@@H]2[C@@H]3C(=O)N(c4cccc(Oc5ccccc5)c4)C(=O)[C@@H]3CC[C@H]12)OCc1ccccc1"
readout_kind = "composite z-score"
value_observed = -0.294

[[record]]
compound = "CCN1C(=O)[C@H]2[C@H]3[C@H](O)[C@H](O)CC(=NOC[C@@H](C)[C@H](OCc4ccccc4)C(C)C)[C@@H]3CC[C@H]2C1=O"
readout_kind = "composite z-score"
value_observed = -0.0745

[[record]]
compound = "CC(C)(C)OC(=O)CC[C@]1(C(=O)NCc2ccccc2)N=C(c2ccc(OCCCO)cc2)O[C@H]1c1ccccc1"
readout_kind = "composite z-score"
value_observed = 1.36

[[record]]
compound = "CC(CCN1CCc2nc(-c3ccccc3)c(-c3ccccc3)cc2C1)=NOC(C)CN1CCCCc2nc(C)c(C)cc21 (stereo not drawn)"
readout_kind = "composite z-score"
value_observed = 0.718

[[record]]
compound = "COCCCNC(=O)[C@@]1(CCS(=O)(=O)c2ccccc2)N=C(c2ccc(OCCCO)cc2)O[C@H]1c1ccccc1"
readout_kind = "composite z-score"
value_observed = 0.746

[[record]]
compound = "CCOC(=O)[C@H](CC(C)C)NC(=O)CCC1CC(OC(=O)NCc2cccc3ccccc23)CC2(CCCC(COC(=O)NCCc3ccccc3OC)O2)O1 (stereo partly drawn)"
readout_kind = "composite z-score"
value_observed = 0.0969

[[record]]
compound = "COCC(=C=CC[C@@H](O)c1ccccc1OCCO)CCO"
readout_kind = "composite z-score"
value_observed = 0.208

[[record]]
compound = "COCCOC(=O)N1C(=O)[C@@]2(c3cc(C#CC4(O)CCCCCC4)ccc31)[C@H](c1ccc(OCCO)cc1)N1[C@H](c3ccccc3)[C@H](c3ccccc3)OC(=O)[C@H]1[C@@H]2C(=O)NC[C@H](O)c1ccccc1"
readout_kind = "composite z-score"
value_observed = 0.184

[[record]]
compound = "CCCCCN1CC=CC23O[C@@H]4C=CCOC(=O)[C@@H]4[C@H]2C(=O)N(CCCCCCO)[C@@H]3C1=O (stereo partly drawn)"
readout_kind = "composite z-score"
value_observed = -0.236

[[record]]
compound = "C[C@@H]1C=CCC(=O)OC[C@H](C)C(=O)N[C@@H](C)C(=O)OC1"
readout_kind = "composite z-score"
value_observed = 1.32

[[record]]
compound = "C=CCNC(=O)[C@H]1[C@@H]2C(=O)O[C@@H](c3ccccc3)[C@@H](c3ccccc3)N2[C@@H](c2ccc(O)cc2)[C@]12C(=O)N(C(=O)OCCOC)c1ccc(C#CC3=CCCCC3)cc12"
readout_kind = "composite z-score"
value_observed = 0.723

[[record]]
compound = "CC(=O)OC[C@H]1O[C@H](CCON=C(C)CCC(=O)OC[C@H]2O[C@H](C#Cc3ccccc3)C=C[C@@H]2Oc2ccc(C)cc2)C=C[C@@H]1OC(C)=O"
readout_kind = "composite z-score"
value_observed = 0.369

[[record]]
compound = "CC(CCN1CCc2nc(-c3ccccc3)c(-c3ccccc3)cc2C1)=NO[C@@H](C)c1cn([C@H](CO)Cc2ccccc2)nn1"
readout_kind = "composite z-score"
value_observed = 0.0807

[[record]]
compound = "CC[C@@H](c1ccccc1)n1c(=O)n2n(c1=O)[C@H]1[C@H](O)[C@@H]3O[C@@H]3C(=NOCC(C)C)[C@H]1CC2"
readout_kind = "composite z-score"
value_observed = -0.267

